Biological target: TNKS2 ARC4 (Homo sapiens)
Construct: GST (cleaved yes); made in house; host or cells: E. coli C41(DE3)
Experiment: Direct fluorescence polarization, TNKS2 ARC4
Format: binding
Conditions: TAMRA-labeled peptides; n.d. = not detectable; read-out: Kd TNKS2 ARC4 (Direct FP)
READOUT TYPE: pKd
Worth noting: pKd values are minus log10 of concentrations stated in mol/L.

Specify measured pKd for CN(C)c1ccc2c(c1)Oc1cc(N(C)C)ccc1C21OC(=O)c2cc(C(=O)NCCCCCC(=O)N[C@@H](CCCNC(=N)N)C(=O)N[C@@H](CCC(=O)O)C(=O)N[C@H]3CCn4cc(nn4)CCCc4cn(nn4)CC[C@@H](C(=O)N[C@@H](CCC(=O)O)C(N)=O)NC(=O)CNC(=O)[C@H](CC(=O)O)NC(=O)CNC3=O)ccc21 [T-cp4n2m3] .
6.22

====

Molecular target: TNKS1 ARC2-3 (Homo sapiens, UniProt O95271)
Construct: His6 (cleaved yes); made in house; host or cells: E. coli C41(DE3)
Test: Isothermal titration calorimetry, TNKS1 ARC2-3
Type: binding
Settings: unlabeled peptides and Axin proteins, 25 °C; read-out: Kd (nM) to TNKS1 ARC2-3 (ITC)
READOUT TYPE: Kd (nM)
The figure you give is taken to be in nM; do not add the unit.

Specify measured Kd for Ac-REAGDGEE-NH2 [pep1] .
290
